System: Escherichia coli (ATCC 35270)
Assay: Antibacterial assay, E. coli
Format: cell-based
Conditions: ATCC35270, Gram(−), ATCC 35270, read-out: MIC, F: Escherichia coli
Method: The cytotoxicity assays were performed in accordance with the literature protocols. The Na^+/K^+-ATPase, isocitrate lyase, and sortase A inhibition assays were performed according to previously described methods. The antimicrobial assays were performed according to the method described previously.
value.kind: MIC

Quote MIC reported for COc1c(I)cc(/C=C/C(=O)NCCc2ccccc2)cc1I [Compound 4, apliamide D] please.
> 100 µg/mL

Quote MIC reported for CN(C)[C@@H](Cc1c[nH]c2cc(Br)ccc12)C(=O)NCCc1ccccc1 [Compound 5, apliamide E] please.
> 100 µg/mL

Quote MIC reported for CN[C@@H](Cc1cc(I)c(OC)c(I)c1)C(=O)NCCc1ccccc1 [Compound 1, apliamide A] please.
> 100 µg/mL

Quote MIC reported for CC1(C)S[C@@H]2[C@H](NC(=O)[C@H](N)c3ccccc3)C(=O)N2[C@H]1C(=O)O [Ampicillin, reference compound] please.
6.3 µg/mL

Quote MIC reported for COc1c(I)cc(C[C@@H](C(=O)NCCc2ccccc2)N(C)C)cc1I [Compound 2, apliamide B] please.
> 100 µg/mL

Quote MIC reported for COc1ccc(CCNC(=O)[C@H](Cc2cc(I)c(OC)c(I)c2)N(C)C)cc1I [Compound 3, apliamide C] please.
> 100 µg/mL

---

Target: sortase A (Staphylococcus aureus)
Sequence (Q2FV99 whole entry): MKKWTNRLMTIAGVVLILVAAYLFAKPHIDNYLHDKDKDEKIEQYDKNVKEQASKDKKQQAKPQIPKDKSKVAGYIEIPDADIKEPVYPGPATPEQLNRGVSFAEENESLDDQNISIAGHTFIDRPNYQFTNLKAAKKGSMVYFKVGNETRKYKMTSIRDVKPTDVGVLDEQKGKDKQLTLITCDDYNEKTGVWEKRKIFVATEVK
Experiment: Sortase A inhibition assay
Format: biochemical
Conditions: sortase A inhibition; read-out: IC50, Srt A
Description: The cytotoxicity assays were performed in accordance with the literature protocols. The Na^+/K^+-ATPase, isocitrate lyase, and sortase A inhibition assays were performed according to previously described methods. The antimicrobial assays were performed according to the method described previously.
value.kind: pIC50
Units for pIC50: none; it is -log10 of a concentration expressed in mol/L.

Quote pIC50 reported for O=C(O)c1cc[c]([Hg][OH])cc1 [pHMB, para-Hydroxymercuribenzoic acid, reference compound] please.
3.96

---

System: Bacillus subtilis (ATCC 6633)
Assay: Antibacterial assay, B. subtilis
Assay type: cell-based
Conditions: ATCC6633, Gram(+), ATCC 6633, read-out: MIC, B: Bacillus subtilis
value.kind: MIC

Quote MIC reported for COc1c(I)cc(/C=C/C(=O)NCCc2ccccc2)cc1I [Compound 4, apliamide D] please.
> 100 µg/mL

Quote MIC reported for CC1(C)S[C@@H]2[C@H](NC(=O)[C@H](N)c3ccccc3)C(=O)N2[C@H]1C(=O)O [Ampicillin, reference compound] please.
0.4 µg/mL

Quote MIC reported for COc1c(I)cc(C[C@@H](C(=O)NCCc2ccccc2)N(C)C)cc1I [Compound 2, apliamide B] please.
> 100 µg/mL

Quote MIC reported for CN(C)[C@@H](Cc1c[nH]c2cc(Br)ccc12)C(=O)NCCc1ccccc1 [Compound 5, apliamide E] please.
> 100 µg/mL

Quote MIC reported for COc1ccc(CCNC(=O)[C@H](Cc2cc(I)c(OC)c(I)c2)N(C)C)cc1I [Compound 3, apliamide C] please.
> 100 µg/mL

Quote MIC reported for CN[C@@H](Cc1cc(I)c(OC)c(I)c1)C(=O)NCCc1ccccc1 [Compound 1, apliamide A] please.
> 100 µg/mL

---

Test system: MRC5 human lung fibroblast cell-line
Test: Cytotoxicity, MRC5 normal cell-line
Assay type: cell-based
Details: MRC5 human lung fibroblast (normal) cell-line cytotoxicity; read-out: IC50, MRC5
value.kind: IC50 (µM)
Only the number, expressed in µM, is required.

Enter recorded IC50 with MRC5 human lung fibroblast cell-line for COc1c(I)cc(C[C@@H](C(=O)NCCc2ccccc2)N(C)C)cc1I [Compound 2, apliamide B] here.
73.7

Enter recorded IC50 with MRC5 human lung fibroblast cell-line for COc1cccc2c1C(=O)c1c(O)c3c(c(O)c1C2=O)C[C@@](O)(C(=O)CO)C[C@@H]3O[C@H]1C[C@H](N)[C@H](O)[C@H](C)O1 [Doxorubicin, reference compound] here.
9.8

Enter recorded IC50 with MRC5 human lung fibroblast cell-line for CN(C)[C@@H](Cc1c[nH]c2cc(Br)ccc12)C(=O)NCCc1ccccc1 [Compound 5, apliamide E] here.
37

Enter recorded IC50 with MRC5 human lung fibroblast cell-line for CN[C@@H](Cc1cc(I)c(OC)c(I)c1)C(=O)NCCc1ccccc1 [Compound 1, apliamide A] here.
59.2

---

Please respond with reported pIC50 for every item in the list.
Test system: K562 leukemia cell-line
Experiment: Cytotoxicity, K562 leukemia cell-line
Assay type: cell-based
Details: Homo sapiens; K562 leukemia cell-line cytotoxicity; read-out: IC50, K562
Units for pIC50: none; it is -log10 of a concentration expressed in mol/L.

Quote pIC50 reported for COc1cccc2c1C(=O)c1c(O)c3c(c(O)c1C2=O)C[C@@](O)(C(=O)CO)C[C@@H]3O[C@H]1C[C@H](N)[C@H](O)[C@H](C)O1 [Doxorubicin, reference compound] please.
5.92

Quote pIC50 reported for CN(C)[C@@H](Cc1c[nH]c2cc(Br)ccc12)C(=O)NCCc1ccccc1 [Compound 5, apliamide E] please.
5.11

Quote pIC50 reported for CN[C@@H](Cc1cc(I)c(OC)c(I)c1)C(=O)NCCc1ccccc1 [Compound 1, apliamide A] please.
4.84

Quote pIC50 reported for COc1c(I)cc(C[C@@H](C(=O)NCCc2ccccc2)N(C)C)cc1I [Compound 2, apliamide B] please.
4.68

Quote pIC50 reported for COc1c(I)cc(/C=C/C(=O)NCCc2ccccc2)cc1I [Compound 4, apliamide D] please.
4.74

Quote pIC50 reported for COc1ccc(CCNC(=O)[C@H](Cc2cc(I)c(OC)c(I)c2)N(C)C)cc1I [Compound 3, apliamide C] please.
4.98

---

Please respond with reported MIC for every item in the list.
System: Micrococcus luteus (IFO 12708)
Test: Antibacterial assay, M. luteus
Format: cell-based
Conditions: IFO12708, Gram(+), IFO 12708, read-out: MIC, C: Micrococcus luteus

Quote MIC reported for CC1(C)S[C@@H]2[C@H](NC(=O)[C@H](N)c3ccccc3)C(=O)N2[C@H]1C(=O)O [Ampicillin, reference compound] please.
0.4 µg/mL

Quote MIC reported for CN(C)[C@@H](Cc1c[nH]c2cc(Br)ccc12)C(=O)NCCc1ccccc1 [Compound 5, apliamide E] please.
> 100 µg/mL

Quote MIC reported for COc1c(I)cc(/C=C/C(=O)NCCc2ccccc2)cc1I [Compound 4, apliamide D] please.
> 100 µg/mL

Quote MIC reported for COc1ccc(CCNC(=O)[C@H](Cc2cc(I)c(OC)c(I)c2)N(C)C)cc1I [Compound 3, apliamide C] please.
> 100 µg/mL

Quote MIC reported for CN[C@@H](Cc1cc(I)c(OC)c(I)c1)C(=O)NCCc1ccccc1 [Compound 1, apliamide A] please.
> 100 µg/mL

Quote MIC reported for COc1c(I)cc(C[C@@H](C(=O)NCCc2ccccc2)N(C)C)cc1I [Compound 2, apliamide B] please.
> 100 µg/mL

---

Biological target: Na^+/K^+-ATPase
Experiment: Na+/K+-ATPase inhibition assay
Conditions: enzyme inhibition
Please respond with reported pIC50 for every item in the list.
Units for pIC50: none; it is -log10 of a concentration expressed in mol/L.

Enter recorded pIC50 with Na^+/K^+-ATPase for COc1c(I)cc(/C=C/C(=O)NCCc2ccccc2)cc1I [Compound 4, apliamide D] here.
5.49

Enter recorded pIC50 with Na^+/K^+-ATPase for COc1c(I)cc(CCN(C)C)cc1I here.
3.72

Enter recorded pIC50 with Na^+/K^+-ATPase for CN[C@@H](Cc1cc(I)c(OC)c(I)c1)C(=O)NCCc1ccccc1 [Compound 1, apliamide A] here.
3.79

---

System: K562 leukemia cell-line
Experiment: Cytotoxicity, K562 leukemia cell-line
Assay type: cell-based
Settings: Homo sapiens, K562, read-out: IC50, K562
value.kind: IC50 (µM)
Only the number, expressed in µM, is required.

Quote IC50 reported for COc1c(I)cc(CCN(C)C)cc1I please.
19.7

---

Molecular target: Na^+/K^+-ATPase
Experiment: Na+/K+-ATPase inhibition assay
Conditions: enzyme inhibition
value.kind: IC50

Quote IC50 reported for COc1ccc(CCNC(=O)[C@H](Cc2cc(I)c(OC)c(I)c2)N(C)C)cc1I [Compound 3, apliamide C] please.
> 200 µM

Quote IC50 reported for COc1c(I)cc(C[C@@H](C(=O)NCCc2ccccc2)N(C)C)cc1I [Compound 2, apliamide B] please.
> 200 µM

Quote IC50 reported for CN(C)[C@@H](Cc1c[nH]c2cc(Br)ccc12)C(=O)NCCc1ccccc1 [Compound 5, apliamide E] please.
> 200 µM
